Test: Calibration of free NIR probe/sensor by bilirubin titration (cuvette fluorometry, fit with equation 1)
Assay type: binding
Details: effect of fluorophore (cysteine) position; responder probe labeled with 700DX-maleimide
Endpoint: Kd
Give the number first and the unit second.

>>> experimental_result("29C-C2XH11-700DXM: rIFABP mutein MGI-KR14-14R 18L 27A 29C 38V 60R 73F 106L 115R 117D 131D-C2XH11 labeled with LICOR 700DX-maleimide (protein, C2XH11 tag; LICOR 700DX-maleimide label; mutated bf sensitive probe, rIFABP mutein MGI-KR14-14R 18L 27A 29C 38V 60R 73F 106L 115R 117D 131D-C2XH11 labeled with LICOR 700DX-maleimide) MGIAFDGTWRVDRNENRERFLERMGINVVARCLGAHDNLRVTITQEGNRFTVRESSNFRNIDRVFELGVDFAYSLFDGTELTGTWTMEGNRLVGRFRRVDNGRELIAVLEISGNELIRTDTYEGVEARRIFRRDRGAASHHHHHHSHRATPNTSPHHHHHHH")
"29 nM"

Would you kindly share the measured Kd for 74C-C2XH11-700DXM: rIFABP mutein MGI-KR14-14R 18L 27A 38V 60R 73F 74C 106L 115R 117D 131D-C2XH11 labeled with LICOR 700DX-maleimide (protein, C2XH11 tag; LICOR 700DX-maleimide label; mutated bf sensitive probe, rIFABP mutein MGI-KR14-14R 18L 27A 38V 60R 73F 74C 106L 115R 117D 131D-C2XH11 labeled with LICOR 700DX-maleimide) MGIAFDGTWRVDRNENRERFLERMGINVVARRLGAHDNLRVTITQEGNRFTVRESSNFRNIDRVFELGVDFAYSLFCGTELTGTWTMEGNRLVGRFRRVDNGRELIAVLEISGNELIRTDTYEGVEARRIFRRDRGAASHHHHHHSHRATPNTSPHHHHHHH ?
16 nM

Where do these numbers come from? They come from patent US20230053493A1.
